biological target: T1, recombinant full-length Tau protein, longest isoform (Tau 2N4R) (human, UniProt P10636-8 1-441, biotinylated with NHS-biotin for SPR; 15N-labelled for NMR); experiment: SPR (Biacore T200), single-cycle kinetics, biotinylated Tau on streptavidin chip, VHH injected 0.125-2 µM
T1 construct: range 1-441; Expressed in E. coli from pET15b-Tau; also called biotinylated-Tau; 15N-Tau
T1 sequence (P10636 other isoform, or with tags, fused parts or gaps limits assumed): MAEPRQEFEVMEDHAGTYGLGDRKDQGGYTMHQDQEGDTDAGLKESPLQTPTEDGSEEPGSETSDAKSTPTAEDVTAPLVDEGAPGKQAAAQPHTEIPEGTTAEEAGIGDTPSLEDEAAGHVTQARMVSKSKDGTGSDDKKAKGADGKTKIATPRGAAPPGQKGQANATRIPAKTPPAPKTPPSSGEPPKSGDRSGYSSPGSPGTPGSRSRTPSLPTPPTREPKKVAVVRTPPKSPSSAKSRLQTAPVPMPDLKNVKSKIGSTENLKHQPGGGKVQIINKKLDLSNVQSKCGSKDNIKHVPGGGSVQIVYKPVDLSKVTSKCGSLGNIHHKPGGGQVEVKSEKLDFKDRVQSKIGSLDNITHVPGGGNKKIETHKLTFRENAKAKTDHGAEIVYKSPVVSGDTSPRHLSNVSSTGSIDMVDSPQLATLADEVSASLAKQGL
Rule: Kd below 0.07 µM gives yes (1). Equal to or above 0.07 µM gives no (0).

VHH Z70 (VHH, E4-1 with G12V, P16S, T81M and W114G; It may be the form actually produced from pHEN2; also called single domain antibody Z70; optimized VHH Z70) VHH: EVQLQASGGVFVQSGGSLRLSCAASGATSTFDGMGWFRQAPGKEREFVSAISYEQGSYTYYADSVKGRFTISRDNSKNMVYLQMNSLRAEDTATYYCAPAYEGDLYAFDSYGGQGTQVTVSS	no (0)
VHH Mut1 (VHH, Variant of Z70; also called VH Mut1) VHH: EVQLQASGGVFVQSGGSLRLSCAASGATSTFDGMGWFRQAPGKEREFVSAISYEQGSYTYYADSVKGRFTISRDNSKNMVYLQMNSLRAEDTATYYCAPAYEGDLYAFDSYGEQGTQVTVSS	yes (1)
VHH Mut9 (VHH, Variant of Z70; also called VH Mut9) VHH: EVQLQASGGVFVQSGGSLRLSCAASGATSTFDGMGWFRQAPGKEREFVSAISYEQGSYTYYADSVKGRFTISRDNSKNMVYLQMNSLRAEDTATYYCASAYEGDLYAFDSYGEQGTQVTVSS	yes (1)
VHH Mut12 (VHH, Variant of Z70; also called VH Mut12) VHH: AEVQLQASGGVFVQSGGSLRLCCAASGATSTFDGMGWFRQAPGKEREFVSAISYEQGSYTYYADSVKGRFTISRDNSKNMVYLQMNSLRAEDTATYYCAPAYEGDLYAFDSYGEQGTQVTVSS	yes (1)

Next:
Criterion: Kd strictly below 0.07 µM. Is it met by VHH Mut14 (VHH, Variant of Z70; also called VH Mut14) VHH: EVQLQASGGVFVQSGGSLRLSCAASGATSIFDGMGWFRQAPGKEREFVSAISYGQGSYTYYADSVKGRFTISRDNSKNMVYLQMNSLRAEDTATYYCAPAYEGDLYAFDSYGEQGTQVTVSS ?
no (0)
